System: Kochia scoparia (KCHSC)
Assay overview: A. Herbicidal pre-emergence efficacy, KCHSC
Format: in vivo
Cond: pre-emergence, dosage 320 g/ha
Entries and their Pre-emergence efficacy against KCHSC
Kindly provide the numeric value in % only, without the unit symbol.

Cc1cccc(Oc2ncc(Cl)cn2)c1OS(=O)(=O)CC1CC(F)(F)C1 ... 90
CCCCS(=O)(=O)Oc1ccccc1Oc1ncc(Cl)cn1 ... 90
O=S(=O)(CC1CC(F)(F)C1)Oc1c(Br)cccc1Oc1ncc(Cl)cn1 ... 90
N#Cc1cccc(Oc2ncc(Cl)cn2)c1OS(=O)(=O)CC1CC(F)(F)C1 ... 90
O=S(=O)(CC1CC1)Oc1ccccc1Oc1ncc(Cl)cn1 ... 100
Cc1cccc(Oc2ncc(F)cn2)c1OS(=O)(=O)CCC(F)(F)F ... 100

Name the reported Pre-emergence efficacy against KCHSC value associated with the compound O=S(=O)(CCCC(F)(F)F)Oc1c(F)cccc1Oc1ncc(Br)cn1 100

Also CC(C)CS(=O)(=O)Oc1ccccc1Oc1ncc(Cl)cn1 , if possible. 100

Also O=S(=O)(CCCCCl)Oc1ccccc1Oc1ncc(Cl)cn1 , if possible. 100

Also Cc1cccc(Oc2ncc(Cl)cn2)c1OS(=O)(=O)CCC(F)(F)F , if possible. 90

Also O=S(=O)(CCC(F)(F)F)Oc1c(Cl)cccc1Oc1ncc(Cl)cn1 , if possible. 100

Also O=S(=O)(CCCC(F)(F)F)Oc1c(F)cccc1Oc1ncc(F)cn1 , if possible. 100

Also N#Cc1cccc(Oc2ncc(Cl)cn2)c1OS(=O)(=O)CCCCl , if possible. 90

Also C=CCS(=O)(=O)Oc1ccccc1Oc1ncc(Cl)cn1 , if possible. 90

Also CCC(C)S(=O)(=O)Oc1ccccc1Oc1ncc(Cl)cn1 (stereo not shown) , if possible. 90

Also O=S(=O)(CC1CC(F)(F)C1)Oc1c(F)cccc1Oc1ncc(Cl)cn1 , if possible. 100

Also O=S(=O)(CCCCl)Oc1c(F)cccc1Oc1ncc(Cl)cn1 , if possible. 100

Also O=S(=O)(CCCC(F)(F)F)Oc1c(Br)cccc1Oc1ncc(Cl)cn1 , if possible. 100

Also O=S(=O)(CCC(F)(F)F)Oc1c(F)cccc1Oc1ncc(Br)cn1 , if possible. 100

----------
Tested on: Stellaria media (STEME)
Assay overview: A. Herbicidal pre-emergence efficacy, STEME
Format: in vivo
Cond: dosage 320 g/ha
Observed property: Pre-emergence efficacy against STEME (%)
Kindly provide the numeric value in % only, without the unit symbol.

Worked examples follow.
O=S(=O)(CCCC(F)(F)F)Oc1c(Br)cccc1Oc1ncc(Cl)cn1 [Example I-30] ... 100
O=S(=O)(CCC(F)(F)F)Oc1c(F)cccc1Oc1ncc(F)cn1 [Example I-47] ... 100
O=S(=O)(CCCC(F)(F)F)Oc1c(F)cccc1Oc1ncc(F)cn1 [Example I-42] ... 100

Turning now to a further record.
Name the reported Pre-emergence efficacy against STEME value associated with the compound O=S(=O)(CCCCl)Oc1c(F)cccc1Oc1ncc(Cl)cn1 [Example I-14] 100

----------
Entries and their Post-emergence efficacy against ZEAMX in %
System: Zea mays (ZEAMX)
Assay overview: F. Post-emergence effect on useful plants, ZEAMX
Format: in vivo
Cond: useful plant, application rate 320 g/ha
Kindly provide the numeric value in % only, without the unit symbol.

Worked examples follow.
C=CCS(=O)(=O)Oc1ccccc1Oc1ncc(Cl)cn1 ... 0
O=S(=O)(CCC(F)(F)F)Oc1c(Br)cccc1Oc1ncc(F)cn1 ... 0

Turning now to a further record.
Name the reported Post-emergence efficacy against ZEAMX in % value associated with the compound O=S(=O)(CCCCl)Oc1cccc(F)c1Oc1ncc(Cl)cn1 20

----------
Test system: Triticum aestivum (TRZAS)
Assay overview: F. Post-emergence effect on useful plants, TRZAS
Assay type: in vivo
Cond: useful plant, application rate 320 g/ha
Observed property: Post-emergence efficacy against TRZAS in % (%)
Kindly provide the numeric value in % only, without the unit symbol.

Request - read-out Post-emergence efficacy against TRZAS in % | tested on Triticum aestivum (TRZAS) | molecule CC(C)CCS(=O)(=O)Oc1ccccc1Oc1ncc(Cl)cn1 0

----------
System: Stellaria media (STEME)
Assay overview: B. Herbicidal post-emergence efficacy, STEME
Type: in vivo
Cond: 80 g/ha
Observed property: Post-emergence efficacy against STEME (%)
Kindly provide the numeric value in % only, without the unit symbol.

Worked examples follow.
N#Cc1cccc(Oc2ncc(Cl)cn2)c1OS(=O)(=O)CC1CC(F)(F)C1 [Example I-79] ... 90
Cc1cccc(Oc2ncc(Br)cn2)c1OS(=O)(=O)CCCC(F)(F)F [Example I-35] ... 90
O=S(=O)(CCC(F)(F)F)Oc1c(F)cccc1Oc1ncc(Cl)cn1 [Example I-48] ... 90
Cc1cccc(OS(=O)(=O)CCCCl)c1Oc1ncc(Cl)cn1 [Example I-12] ... 90
O=S(=O)(CCCC(F)(F)F)Oc1c(F)cccc1Oc1ncc(Br)cn1 [Example I-41] ... 90
O=S(=O)(CC1CC(F)(F)C1)Oc1c(F)cccc1Oc1ncc(Cl)cn1 [Example I-53] ... 90

Name the reported Post-emergence efficacy against STEME value associated with the molecule O=S(=O)(CCCC(F)(F)F)Oc1c(F)cccc1Oc1ncc(Cl)cn1 [Example I-49] 90

Also O=S(=O)(CC1CC1)Oc1ccccc1Oc1ncc(Cl)cn1 [Example I-23] , if possible. 90

Also O=S(=O)(CCC1CC1(Cl)Cl)Oc1c(F)cccc1Oc1ncc(Cl)cn1 (stereo not shown) [Example I-51] , if possible. 90

Also O=S(=O)(CCCC(F)(F)F)Oc1ccccc1Oc1ncc(Cl)cn1 [Example I-10] , if possible. 90

Also O=S(=O)(CCCC(F)(F)F)Oc1c(Br)cccc1Oc1ncc(F)cn1 [Example I-44] , if possible. 100

Also O=S(=O)(CCC(F)(F)F)Oc1c(Cl)cccc1Oc1ncc(Cl)cn1 [Example I-38] , if possible. 90

Also O=S(=O)(Oc1ccccc1Oc1ncc(Cl)cn1)C1CCCC1 [Example I-19] , if possible. 90

Also O=S(=O)(CCCCCl)Oc1ccccc1Oc1ncc(Cl)cn1 [Example I-15] , if possible. 100

Also O=S(=O)(CCC(F)=C(F)F)Oc1c(Br)cccc1Oc1ncc(Cl)cn1 [Example I-72] , if possible. 90

Also Cc1cccc(Oc2ncc(Cl)cn2)c1OS(=O)(=O)CC1CC1(Cl)Cl (stereo not shown) [Example I-76] , if possible. 90

Also O=S(=O)(CCCCl)Oc1c(F)cccc1Oc1ncc(Cl)cn1 [Example I-14] , if possible. 100

Also O=S(=O)(CCCC(F)(F)F)Oc1c(Cl)cccc1Oc1ncc(Cl)cn1 [Example I-39] , if possible. 90

----------
Entries and their Post-emergence efficacy against SETVI in %
Test system: Setaria viridis (SETVI)
Assay overview: E. Herbicidal post-emergence efficacy, SETVI
Type: in vivo
Cond: application rate 80 g/ha
Kindly provide the numeric value in % only, without the unit symbol.

Worked examples follow.
O=S(=O)(CCCCl)Oc1ccccc1Oc1ncc(F)cn1 ... 90
O=S(=O)(CCCCl)Oc1ccccc1Oc1ncc(Cl)cn1 ... 100
O=S(=O)(CCCC(F)(F)F)Oc1c(Cl)cccc1Oc1ncc(Br)cn1 ... 90

Name the reported Post-emergence efficacy against SETVI in % value associated with the molecule O=S(=O)(CCC(F)(F)F)Oc1c(Cl)cccc1Oc1ncc(Br)cn1 80

Also O=S(=O)(CCC(F)(F)F)Oc1c(F)cccc1Oc1ncc(Cl)cn1 , if possible. 100

Also O=S(=O)(CCC(F)=C(F)F)Oc1c(F)cccc1Oc1ncc(Cl)cn1 , if possible. 100

Also O=S(=O)(CCCC(F)(F)F)Oc1c(F)cccc1Oc1ncc(Br)cn1 , if possible. 100

Also O=S(=O)(CCCCCl)Oc1ccccc1Oc1ncc(Cl)cn1 , if possible. 80

Also O=S(=O)(CCCC(F)F)Oc1c(F)cccc1Oc1ncc(Cl)cn1 , if possible. 80

Also O=S(=O)(CCC(F)(F)F)Oc1c(Cl)cccc1Oc1ncc(Cl)cn1 , if possible. 100

Also O=S(=O)(CCC(F)(F)F)Oc1c(F)cccc1Oc1ncc(Br)cn1 , if possible. 100

Also O=S(=O)(CCCC(F)(F)F)Oc1c(F)cccc1Oc1ncc(Cl)cn1 , if possible. 100

Also CC(C)CS(=O)(=O)Oc1ccccc1Oc1ncc(Cl)cn1 , if possible. 90

Also O=S(=O)(CCCC(F)(F)C(F)(F)F)Oc1c(F)cccc1Oc1ncc(Cl)cn1 , if possible. 100

----------
Entries and their Pre-emergence efficacy against ABUTH
Test system: Abutilon theophrasti (ABUTH)
Assay overview: C. Herbicidal pre-emergence efficacy, ABUTH
Type: in vivo
Cond: 80 g/ha, scored after about 3 weeks
Kindly provide the numeric value in % only, without the unit symbol.

COCCS(=O)(=O)Oc1c(F)cccc1Oc1ncc(Cl)cn1 ... 80
Cc1cccc(OS(=O)(=O)CCCCl)c1Oc1ncc(Cl)cn1 ... 80
Cc1cccc(Oc2ncc(Cl)cn2)c1OS(=O)(=O)CCCCl ... 90
O=S(=O)(CCCC(F)(F)F)Oc1c(Cl)cccc1Oc1ncc(Br)cn1 ... 80
O=S(=O)(CCCC(F)(F)F)Oc1c(F)cccc1Oc1ncc(F)cn1 ... 100
O=S(=O)(CCC(F)(F)F)Oc1c(Br)cccc1Oc1ncc(F)cn1 ... 80
O=S(=O)(CCC(F)(F)F)Oc1c(Cl)cccc1Oc1ncc(Br)cn1 ... 90
O=S(=O)(CCC(F)(F)F)Oc1c(F)cccc1Oc1ncc(F)cn1 ... 100

Turning now to a further record.
Name the reported Pre-emergence efficacy against ABUTH value associated with the molecule O=S(=O)(CC1CC(F)(F)C1)Oc1c(F)cccc1Oc1ncc(Cl)cn1 100
